Quick reference: viability of the listed items.
method_notes: growth suppression of beta-catenin knockout HCT116, pilot screen, human colon tumor cells (AID 823);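 note: 0% = wells killed by 20 µM Hyamine and 100% = untreated DMSO cell wells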
stated_conditions: CellTiter-Glo, 60 h, at 10 µM, active compounds read low
Inconclusive results are not listed. The source made the active and inactive calls.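 Rule for the calls: active = cell viability at or below a set limit in both duplicate runs, the limit being the all-compound median minus 4 SD (cut at about 23% in these data, passing the limit was not always enough); inconclusive = no clear call, values can overlap the other calls; inactive = the rest.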

compound | viability
O=C(CSc1cn(CCNC(=O)c2ccccc2)c2ccccc12)NCc1ccco1 | 84.1% (inactive)

I have this compound here, `CCCCn1c(CCCNC(=O)CC)nc2ccccc21` , and I need its recorded viability. 94.2% (inactive)

What measured viability goes with `O=C(Cn1nc(-c2ccccc2)ccc1=O)Nc1ccc(N2CCN(C(=O)c3ccccc3)CC2)cc1` ? 94.5% (inactive)

Fill in the blank: the reported viability of COc1cccc(C2CC(=O)N3CN(c4cccc(Cl)c4C)CSC3=C2C#N)c1OC (stereo not given) is ____. 73.2% (inactive)

Find the recorded viability belonging to `COc1ccc(NC(=O)Nc2c(C)n(C)n(-c3ccccc3)c2=O)cc1` and report it. 103% (inactive)

Entry `CCOCC(=O)NCc1ccc2c(c1)cc(C)n2C` has what viability? 103% (inactive)

Which value of viability has been reported for `CCCn1c(CCC(=O)O)ccc1-c1cccs1` in the records? 93.4% (inactive)

Consider the compound `Cn1c(C(=O)Nc2ccc3c(c2)OCCO3)cc2c(=O)n(C)c3ccccc3c21` and give its measured viability. 72.5% (inactive)

What does the record list as viability for `CCCOc1ccc(NC(=O)c2c(-c3ccccc3)noc2C)cc1` ? 103% (inactive)

Return reported viability; argument: COc1ccc(CN2CCCCC2C(=O)Nc2ccc(OC)c(OC)c2)cc1OC (stereo not given) 95.8% (inactive)

Quick one: viability for `COCCNC(=O)c1cc2c(-c3ccc(Cl)cc3)nn(C)c2s1` ? 64.6% (inactive)

# query: viability of entry `COc1cc(OC)cc(C(=O)NCCn2ccc3ccccc32)c1` 92.8% (inactive)

Please report the recorded viability for CCOC(=O)C1C(=O)CC(C)(O)C(C(=O)OCC)C1c1ccco1 (stereo not given) . 101% (inactive)

The reported numbers originate from PubChem BioAssay.
